Measured MIC values are reported for all entries that follow.
# Test system: A. baumannii ATCC 17961
# Assay type: cell-based
# condition: ATCC 17961, 16 h
Numbers only; they are read as µg/mL.

CC[C@@H](C)[C@H]1NC(=O)[C@H](NC(=O)[C@@H](Cc2c[nH]c3ccccc23)NC(=O)[C@H](CCCN)NC(=O)CNC(=O)[C@@H](CCCN)NC(=O)[C@H](CCCN)NC(=O)[C@H](Cc2c[nH]c3ccccc23)NC(=O)[C@H](Cc2ccc(O)cc2)NC(=O)[C@H](CO)NC(=O)CCCCCC(C)C)[C@H](C)OC(=O)CNC(=O)CNC(=O)[C@@H](CC(N)=O)NC1=O (single isomer, unassigned) [ent-Lat (ent-2), ent-laterocidine]: 4
CC[C@H](C)[C@@H]1NC(=O)[C@@H](NC(=O)[C@H](Cc2c[nH]c3ccccc23)NC(=O)[C@@H](CCCN)NC(=O)CNC(=O)[C@H](CCCN)NC(=O)[C@@H](CCCN)NC(=O)[C@@H](Cc2c[nH]c3ccccc23)NC(=O)[C@@H](Cc2ccc(O)cc2)NC(=O)[C@@H](CO)NC(=O)CCCCCC(C)C)[C@@H](C)OC(=O)CNC(=O)CNC(=O)[C@H](CC(N)=O)NC1=O: 0.5

Turning to the following compound.
Exercise: I would be grateful if you could share the reported MIC for CCC(C)CCC(=O)N[C@@H](CC(N)=O)C(=O)N[C@@H](Cc1ccc(O)cc1)C(=O)N[C@@H](Cc1c[nH]c2ccccc12)C(=O)N[C@@H](CCCN)C(=O)N[C@H](CCCN)C(=O)NCC(=O)N[C@@H](CCCN)C(=O)N[C@H](Cc1c[nH]c2ccccc12)C(=O)N[C@H]1C(=O)N[C@H]([C@H](C)CC)C(=O)NCC(=O)N[C@H](CO)C(=O)O[C@H]1C (single isomer, unassigned) [ent-Brev (ent-1), ent-brevicidine] .
Key: 32

----------
# Tested on: P. aeruginosa M-120
# Type: cell-based
# condition: M-120, 16 h
Positions of bridges follow the written chain, without caps; N, C: chain ends. Non-standard residues stand in square brackets, D forms with d. Residues, ends and D or L forms follow the SMILES beside them. ξ: configuration not given here. *: point of attachment. Octanoyl(7-Me) = CC(C)CCCCCC(=O)*; Hexanoyl(4ξ-Me) = CCC(C)CCC(=O)*; dOrn = NCCC[C@@H](N)C(=O)O; Orn = NCCC[C@H](N)C(=O)O
Measured MIC, listed per entry.
Field: numeric (µg/mL). Do not append units.

Please review the entries below; each comes with its answer.
CC[C@H](C)[C@@H]1NC(=O)[C@@H](NC(=O)[C@H](Cc2c[nH]c3ccccc23)NC(=O)[C@@H](CCCN)NC(=O)CNC(=O)[C@H](CCCN)NC(=O)[C@@H](CCCN)NC(=O)[C@@H](Cc2c[nH]c3ccccc23)NC(=O)[C@@H](Cc2ccc(O)cc2)NC(=O)[C@@H](CO)NC(=O)CCCCCC(C)C)COC(=O)CNC(=O)CNC(=O)[C@H](CC(N)=O)NC1=O [Ser9-Lat (4), Ser9-Laterocidine] ({Octanoyl(7-Me)}-[dS][dY][dW][dOrn][Orn]G[dOrn]WSINGG; ester 9-C): 1
CCC(C)CCC(=O)N[C@H](CC(N)=O)C(=O)N[C@H](Cc1ccc(O)cc1)C(=O)N[C@H](Cc1c[nH]c2ccccc12)C(=O)N[C@H](CCCN)C(=O)N[C@@H](CCCN)C(=O)NCC(=O)N[C@H](CCCN)C(=O)N[C@@H](Cc1c[nH]c2ccccc12)C(=O)N[C@H]1COC(=O)[C@H](CO)NC(=O)CNC(=O)[C@H]([C@@H](C)CC)NC1=O (some centres unmarked) [Ser9-Brev (3), Ser9-Brevicidine] ({Hexanoyl(4ξ-Me)}-[dN][dY][dW][dOrn][Orn]G[dOrn]WSIGS; ester 9-C): 2
CC[C@H](C)[C@@H]1NC(=O)[C@@H](NC(=O)[C@H](Cc2c[nH]c3ccccc23)NC(=O)[C@@H](CCCN)NC(=O)CNC(=O)[C@H](CCCN)NC(=O)[C@@H](CCCN)NC(=O)[C@@H](Cc2c[nH]c3ccccc23)NC(=O)[C@@H](Cc2ccc(O)cc2)NC(=O)[C@@H](CO)NC(=O)CCCCCC(C)C)[C@@H](C)NC(=O)CNC(=O)CNC(=O)[C@H](CC(N)=O)NC1=O: 1
CC[C@H](C)[C@@H]1NC(=O)[C@@H](NC(=O)[C@H](Cc2c[nH]c3ccccc23)NC(=O)[C@@H](CCCN)NC(=O)CNC(=O)[C@H](CCCN)NC(=O)[C@@H](CCCN)NC(=O)[C@@H](Cc2c[nH]c3ccccc23)NC(=O)[C@@H](Cc2ccc(O)cc2)NC(=O)[C@@H](CO)NC(=O)CCCCCC(C)C)[C@@H](C)OC(=O)CNC(=O)CNC(=O)[C@H](CC(N)=O)NC1=O: 1

Could you now look at the following compound, please?
Exercise: Which value of MIC has been reported for CCC(C)CCC(=O)N[C@H](CC(N)=O)C(=O)N[C@H](Cc1ccc(O)cc1)C(=O)N[C@H](Cc1c[nH]c2ccccc12)C(=O)N[C@H](CCCN)C(=O)N[C@@H](CCCN)C(=O)NCC(=O)N[C@H](CCCN)C(=O)N[C@@H](Cc1c[nH]c2ccccc12)C(=O)N[C@@H]1C(=O)N[C@@H]([C@@H](C)CC)C(=O)NCC(=O)N[C@@H](CO)C(=O)N[C@@H]1C (some centres unmarked) in the records?
Key: 4

----------
Overview of recorded MIC for various compounds
# System: K. pneumoniae JS-123
# Format: cell-based
# condition: JS-123, 16 h
Positions of bridges follow the written chain, without caps; N, C: chain ends. Non-standard residues stand in square brackets, D forms with d. Residues, ends and D or L forms follow the SMILES beside them. ξ: configuration not given here. *: point of attachment. Octanoyl(7-Me) = CC(C)CCCCCC(=O)*; Hexanoyl(4ξ-Me) = CCC(C)CCC(=O)*; dOrn = NCCC[C@@H](N)C(=O)O; Orn = NCCC[C@H](N)C(=O)O; Dap = NC[C@H](N)C(=O)O
Write it as a number; the unit mg/L goes unstated.

Observe how each entry below is paired with its result.
CCC(C)CCC(=O)N[C@H](CC(N)=O)C(=O)N[C@H](Cc1ccc(O)cc1)C(=O)N[C@H](Cc1c[nH]c2ccccc12)C(=O)N[C@H](CCCN)C(=O)N[C@@H](CCCN)C(=O)NCC(=O)N[C@H](CCCN)C(=O)N[C@@H](Cc1c[nH]c2ccccc12)C(=O)N[C@@H]1C(=O)N[C@@H]([C@@H](C)CC)C(=O)NCC(=O)N[C@@H](CO)C(=O)O[C@@H]1C (stereo partly shown) [Brev (1), brevicidine]: 1
CC[C@H](C)[C@@H]1NC(=O)[C@@H](NC(=O)[C@H](Cc2c[nH]c3ccccc23)NC(=O)[C@@H](CCCN)NC(=O)CNC(=O)[C@H](CCCN)NC(=O)[C@@H](CCCN)NC(=O)[C@@H](Cc2c[nH]c3ccccc23)NC(=O)[C@@H](Cc2ccc(O)cc2)NC(=O)[C@@H](CO)NC(=O)CCCCCC(C)C)CNC(=O)CNC(=O)CNC(=O)[C@H](CC(N)=O)NC1=O [Dap9-Lat (6), Dap9-laterocidamide] ({Octanoyl(7-Me)}-[dS][dY][dW][dOrn][Orn]G[dOrn]W[Dap]INGG; lactam 9-C): 0.5
CCC(C)CCC(=O)N[C@H](CC(N)=O)C(=O)N[C@H](Cc1ccc(O)cc1)C(=O)N[C@H](Cc1c[nH]c2ccccc12)C(=O)N[C@H](CCCN)C(=O)N[C@@H](CCCN)C(=O)NCC(=O)N[C@H](CCCN)C(=O)N[C@@H](Cc1c[nH]c2ccccc12)C(=O)N[C@H]1COC(=O)[C@H](CO)NC(=O)CNC(=O)[C@H]([C@@H](C)CC)NC1=O (stereo partly shown) [Ser9-Brev (3), Ser9-Brevicidine] ({Hexanoyl(4ξ-Me)}-[dN][dY][dW][dOrn][Orn]G[dOrn]WSIGS; ester 9-C): 2

Exercise: Name the recorded MIC for CC[C@H](C)[C@@H]1NC(=O)[C@@H](NC(=O)[C@H](Cc2c[nH]c3ccccc23)NC(=O)[C@@H](CCCN)NC(=O)CNC(=O)[C@H](CCCN)NC(=O)[C@@H](CCCN)NC(=O)[C@@H](Cc2c[nH]c3ccccc23)NC(=O)[C@@H](Cc2ccc(O)cc2)NC(=O)[C@@H](CO)NC(=O)CCCCCC(C)C)[C@@H](C)OC(=O)CNC(=O)CNC(=O)[C@H](CC(N)=O)NC1=O [Lat (2), laterocidine] .
Key: 0.5

----------
Each record here notes measured MIC.
# System: E. coli ATCC 25922 MCR-1
# Format: cell-based
# condition: Ec ATCC 25922 MCR-1; broth microdilution (CLSI), MHB, 16 h 37 °C, three technical replicates
Positions of bridges follow the written chain, without caps; N, C: chain ends. Non-standard residues stand in square brackets, D forms with d. Residues, ends and D or L forms follow the SMILES beside them. ξ: configuration not given here. *: point of attachment. Hexanoyl(4ξ-Me) = CCC(C)CCC(=O)*; dOrn = NCCC[C@@H](N)C(=O)O; Orn = NCCC[C@H](N)C(=O)O; Dap = NC[C@H](N)C(=O)O

CCC(C)CCC(=O)N[C@H](CC(N)=O)C(=O)N[C@H](Cc1ccc(O)cc1)C(=O)N[C@H](Cc1c[nH]c2ccccc12)C(=O)N[C@H](CCCN)C(=O)N[C@@H](CCCN)C(=O)NCC(=O)N[C@H](CCCN)C(=O)N[C@@H](Cc1c[nH]c2ccccc12)C(=O)N[C@@H]1C(=O)N[C@@H]([C@@H](C)CC)C(=O)NCC(=O)N[C@@H](CO)C(=O)O[C@@H]1C (stereo partly shown): 2 µg/mL
CCC(C)CCC(=O)N[C@H](CC(N)=O)C(=O)N[C@H](Cc1ccc(O)cc1)C(=O)N[C@H](Cc1c[nH]c2ccccc12)C(=O)N[C@H](CCCN)C(=O)N[C@@H](CCCN)C(=O)NCC(=O)N[C@H](CCCN)C(=O)N[C@@H](Cc1c[nH]c2ccccc12)C(=O)N[C@H]1COC(=O)[C@H](CO)NC(=O)CNC(=O)[C@H]([C@@H](C)CC)NC1=O (stereo partly shown) [Ser9-Brev (3), Ser9-Brevicidine] ({Hexanoyl(4ξ-Me)}-[dN][dY][dW][dOrn][Orn]G[dOrn]WSIGS; ester 9-C): 4 µg/mL
CC[C@H](C)[C@@H]1NC(=O)[C@@H](NC(=O)[C@H](Cc2c[nH]c3ccccc23)NC(=O)[C@@H](CCCN)NC(=O)CNC(=O)[C@H](CCCN)NC(=O)[C@@H](CCCN)NC(=O)[C@@H](Cc2c[nH]c3ccccc23)NC(=O)[C@@H](Cc2ccc(O)cc2)NC(=O)[C@@H](CO)NC(=O)CCCCCC(C)C)[C@@H](C)NC(=O)CNC(=O)CNC(=O)[C@H](CC(N)=O)NC1=O: 1 µg/mL

Kindly consider the entry below.
Exercise: So what's the measured MIC for this one? CCC(C)CCC(=O)N[C@H](CC(N)=O)C(=O)N[C@H](Cc1ccc(O)cc1)C(=O)N[C@H](Cc1c[nH]c2ccccc12)C(=O)N[C@H](CCCN)C(=O)N[C@@H](CCCN)C(=O)NCC(=O)N[C@H](CCCN)C(=O)N[C@@H](Cc1c[nH]c2ccccc12)C(=O)N[C@H]1CNC(=O)[C@H](CO)NC(=O)CNC(=O)[C@H]([C@@H](C)CC)NC1=O (stereo partly shown) [Dap9-Brev (5), Dap9-Brevicidamide] ({Hexanoyl(4ξ-Me)}-[dN][dY][dW][dOrn][Orn]G[dOrn]W[Dap]IGS; lactam 9-C)
Key: 16 µg/mL

Origin of values: paper PMC8943889
